target: aldose reductase (Bos taurus); construct: preparation of the enzyme from bovine lens; from tissue; host or cells: bovine lens; test: in vitro aldose reductase inhibition (modified Hayman and Kinoshita procedure; enzyme from bovine lens); assay type: biochemical; details: 10^-5 molar, read-out: Percent Inhibition at Different Molar Concentrations (in vitro)
Listed molecules paired with reported inhibition at 10 µM

molecule	inhibition at 10 µM [%]
O=C(O)CN1C(=O)c2cccc3c(Sc4ccccc4C(=O)O)ccc(c23)C1=O [Example 4]	91
O=C(O)CN1C(=O)c2cccc3cccc(c23)C1=O [reference compound]	74
O=C(O)CN1C(=O)c2cccc3c(Sc4ccccc4)ccc(c23)C1=O [Example 3]	92
O=C(O)CN1C(=O)c2cccc3c(Cl)ccc(c23)C1=O [Example 2]	86
CCCCCCCCCCSc1ccc2c3c(cccc13)C(=O)N(CC(=O)O)C2=O [Example 5]	60
O=C(O)CN1C(=O)c2cccc3c(C(=O)c4ccccc4)ccc(c23)C1=O [Example 1]	85
